Molecular target: Neuronal acetylcholine receptor; alpha4/beta2 (Rattus norvegicus, UniProt P09483+P12390)
Sequence (P09483 whole entry): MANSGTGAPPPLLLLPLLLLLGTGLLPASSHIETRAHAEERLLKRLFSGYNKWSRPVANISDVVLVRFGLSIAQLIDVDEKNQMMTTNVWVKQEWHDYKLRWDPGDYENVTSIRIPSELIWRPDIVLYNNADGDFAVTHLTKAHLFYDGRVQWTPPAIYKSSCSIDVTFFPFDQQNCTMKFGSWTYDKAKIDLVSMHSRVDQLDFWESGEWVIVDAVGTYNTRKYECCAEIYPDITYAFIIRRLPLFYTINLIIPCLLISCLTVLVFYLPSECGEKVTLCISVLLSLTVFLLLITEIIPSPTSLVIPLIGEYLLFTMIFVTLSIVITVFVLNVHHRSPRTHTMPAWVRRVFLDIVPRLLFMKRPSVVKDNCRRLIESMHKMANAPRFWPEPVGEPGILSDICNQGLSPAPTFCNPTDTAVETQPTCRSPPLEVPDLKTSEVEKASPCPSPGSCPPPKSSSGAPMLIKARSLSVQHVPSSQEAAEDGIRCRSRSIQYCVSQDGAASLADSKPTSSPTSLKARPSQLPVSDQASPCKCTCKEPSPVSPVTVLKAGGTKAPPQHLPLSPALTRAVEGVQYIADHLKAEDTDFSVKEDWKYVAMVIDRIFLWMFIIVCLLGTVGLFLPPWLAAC
Sequence (P12390 whole entry): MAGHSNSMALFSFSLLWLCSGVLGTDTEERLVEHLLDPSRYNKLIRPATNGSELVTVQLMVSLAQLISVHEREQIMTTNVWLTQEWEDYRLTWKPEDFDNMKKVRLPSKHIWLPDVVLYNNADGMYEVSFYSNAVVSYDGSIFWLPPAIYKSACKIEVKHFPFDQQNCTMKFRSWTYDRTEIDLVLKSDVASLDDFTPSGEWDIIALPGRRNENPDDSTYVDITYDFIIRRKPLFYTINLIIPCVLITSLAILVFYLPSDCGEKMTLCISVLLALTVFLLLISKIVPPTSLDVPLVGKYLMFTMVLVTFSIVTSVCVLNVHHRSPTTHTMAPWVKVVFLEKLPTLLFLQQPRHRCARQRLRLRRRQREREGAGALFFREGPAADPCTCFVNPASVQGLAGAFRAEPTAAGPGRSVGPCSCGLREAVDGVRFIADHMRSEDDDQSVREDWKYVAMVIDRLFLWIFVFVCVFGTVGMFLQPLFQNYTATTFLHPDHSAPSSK
Assay: In vitro binding affinity towards (alpha-4)2(beta-2)3 neuronal nicotinic acetylcholine receptor in P2 membrane fractions of rat forebrain
Provide the reported Ki of each item.
Respond numerically; units are nM and should not be typed.

Lab entry: Neuronal acetylcholine receptor; alpha4/beta2 (Rattus norvegicus, UniProt P09483+P12390) assay, compound C1=C(c2cccnc2)C2CCN1CC2 , Ki = 7.59

Recorded Ki for C1=C(c2cncnc2)C2CCC(C1)N2 (stereo unspecified) on Neuronal acetylcholine receptor; alpha4/beta2 (Rattus norvegicus, UniProt P09483+P12390) was 3.72

Simply: CC(=O)C1=CCC2CCC1N2 (stereo unspecified) , Neuronal acetylcholine receptor; alpha4/beta2 (Rattus norvegicus, UniProt P09483+P12390), Ki = 93.3

Note to self: Ki of Clc1nccnc1C1=CCC2CCC1N2 (stereo unspecified) with Neuronal acetylcholine receptor; alpha4/beta2 (Rattus norvegicus, UniProt P09483+P12390) was 4170

Per the reported Neuronal acetylcholine receptor; alpha4/beta2 (Rattus norvegicus, UniProt P09483+P12390) data, Ic1ccc(C2CC3CCC2N3)cn1 (stereo unspecified) has Ki of 0.0251

Neuronal acetylcholine receptor; alpha4/beta2 (Rattus norvegicus, UniProt P09483+P12390) data for CN1C2CCC1CN(c1ccnnc1)CC2 (stereo unspecified) ; its Ki: 0.525

Per the reported Neuronal acetylcholine receptor; alpha4/beta2 (Rattus norvegicus, UniProt P09483+P12390) data, C1=C(c2ccnnc2)C2CCC(C1)N2 (stereo unspecified) has Ki of 7.94

Kindly note: Neuronal acetylcholine receptor; alpha4/beta2 (Rattus norvegicus, UniProt P09483+P12390), c1nncc2c1CCC1CCC2N1 (stereo unspecified) , Ki value reported: 34.7

// compound CN1C2CC=C(c3cccnc3)C1CC2 (stereo unspecified) , assay Neuronal acetylcholine receptor; alpha4/beta2 (Rattus norvegicus, UniProt P09483+P12390), Ki value: 9.55

For the compound Brc1ccc(C2CC3CCC2N3)cn1 (stereo unspecified) , the measured Ki on Neuronal acetylcholine receptor; alpha4/beta2 (Rattus norvegicus, UniProt P09483+P12390) was 0.0447

Value sought: Ki, system Neuronal acetylcholine receptor; alpha4/beta2 (Rattus norvegicus, UniProt P09483+P12390), item CN1C2CCC1C(c1ccc(Cl)nc1)C2 (stereo unspecified) . Result: 0.0269

So the reported Ki for c1ncc2c(n1)CC1CCC2N1 (stereo unspecified) , on Neuronal acetylcholine receptor; alpha4/beta2 (Rattus norvegicus, UniProt P09483+P12390), turned out to be 676

Record O=c1c(I)ccc2n1CC1CNCC2C1 (stereo unspecified) has Neuronal acetylcholine receptor; alpha4/beta2 (Rattus norvegicus, UniProt P09483+P12390) Ki equal to 0.017

Entry O=c1c(Cl)ccc2n1CC1CNCC2C1 (stereo unspecified) : Ki on Neuronal acetylcholine receptor; alpha4/beta2 (Rattus norvegicus, UniProt P09483+P12390) = 0.0224

The measured Ki that C1=C(c2cnccn2)C2CCC(C1)N2 (stereo unspecified) showed for Neuronal acetylcholine receptor; alpha4/beta2 (Rattus norvegicus, UniProt P09483+P12390) is 398

Short answer on Neuronal acetylcholine receptor; alpha4/beta2 (Rattus norvegicus, UniProt P09483+P12390) for CN1C2CCC1CN(c1ccc(Cl)nc1)CC2 (stereo unspecified) , Ki: 0.871

Record C1=C(c2cccnc2)CC2CCC1N2 (stereo unspecified) ; system Neuronal acetylcholine receptor; alpha4/beta2 (Rattus norvegicus, UniProt P09483+P12390); Ki = 0.257

Observed Ki, Neuronal acetylcholine receptor; alpha4/beta2 (Rattus norvegicus, UniProt P09483+P12390), CN1C2CCC1CN(c1cncnc1)CC2 (stereo unspecified) : 2.09

// Ki (Neuronal acetylcholine receptor; alpha4/beta2 (Rattus norvegicus, UniProt P09483+P12390)) for Cc1cc(C2=CCC3CCC2N3C)on1 (stereo unspecified) = 31.6

# Ki measured on Neuronal acetylcholine receptor; alpha4/beta2 (Rattus norvegicus, UniProt P09483+P12390) for item CN1C2C=C(c3cncnc3)CC1CC2 (stereo in doubt; 58) = 1.26

O=c1c(Cl)cc(Cl)c2n1CC1CNCC2C1 (stereo unspecified) on Neuronal acetylcholine receptor; alpha4/beta2 (Rattus norvegicus, UniProt P09483+P12390) gives Ki = 2.51

Assay Neuronal acetylcholine receptor; alpha4/beta2 (Rattus norvegicus, UniProt P09483+P12390), sample c1nncc2c1CC1CCC2N1 (stereo unspecified) , Ki read: 75.9

Note to self: Ki of CN1CC2CC(C1)c1cccc(=O)n1C2 (stereo unspecified) with Neuronal acetylcholine receptor; alpha4/beta2 (Rattus norvegicus, UniProt P09483+P12390) was 5.75

The value of Ki recorded for CN(C)C(=S)C1=CCC2CCC1N2 (stereo unspecified) when tested on Neuronal acetylcholine receptor; alpha4/beta2 (Rattus norvegicus, UniProt P09483+P12390) reads 2450

Here CN1C2CCC1C(c1ccc(F)nc1)C2 (stereo unspecified) was tested on Neuronal acetylcholine receptor; alpha4/beta2 (Rattus norvegicus, UniProt P09483+P12390), and its Ki came to 0.0282

# Ki measured on Neuronal acetylcholine receptor; alpha4/beta2 (Rattus norvegicus, UniProt P09483+P12390) for item CN1C2CC=C(c3ccc(Cl)nc3)C1CC2 (stereo unspecified) = 8.91

// compound C1=C(c2ccnnc2)CC2CCC1N2 (stereo unspecified) , assay Neuronal acetylcholine receptor; alpha4/beta2 (Rattus norvegicus, UniProt P09483+P12390), Ki value: 10

Form field, Ki with Neuronal acetylcholine receptor; alpha4/beta2 (Rattus norvegicus, UniProt P09483+P12390), item Fc1ccc(C2CC3CCC2N3)cn1 (stereo unspecified) : 0.0282

The compound CN1C2CCC1CN(c1ccc(Cl)nn1)CC2 (stereo unspecified) on Neuronal acetylcholine receptor; alpha4/beta2 (Rattus norvegicus, UniProt P09483+P12390): Ki was 0.55

Tested system Neuronal acetylcholine receptor; alpha4/beta2 (Rattus norvegicus, UniProt P09483+P12390); Ki recorded for Clc1ncc(C2=CCCC3CCC2N3)cn1 (stereo unspecified) was 0.151

Taken from ChEMBL document CHEMBL1144890.
